Exercise: for every item that follows, state its recorded pIC50.
measurement.target: D(2) dopamine receptor (Homo sapiens, UniProt P14416)
Sequence (P14416 whole entry): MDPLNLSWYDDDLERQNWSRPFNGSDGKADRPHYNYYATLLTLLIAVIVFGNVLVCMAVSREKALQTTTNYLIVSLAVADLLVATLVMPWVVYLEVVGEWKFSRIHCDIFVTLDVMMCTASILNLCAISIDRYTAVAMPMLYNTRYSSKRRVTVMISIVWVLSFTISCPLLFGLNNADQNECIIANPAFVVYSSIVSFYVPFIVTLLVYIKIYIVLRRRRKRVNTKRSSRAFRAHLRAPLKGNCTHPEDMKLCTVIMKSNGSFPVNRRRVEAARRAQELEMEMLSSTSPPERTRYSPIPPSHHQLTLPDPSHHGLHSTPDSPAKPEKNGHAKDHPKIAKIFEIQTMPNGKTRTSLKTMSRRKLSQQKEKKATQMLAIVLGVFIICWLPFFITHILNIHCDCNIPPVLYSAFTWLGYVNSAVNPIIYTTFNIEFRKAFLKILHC
experiment.summary: Inhibition of human dopamine D2L receptor expressed in intact CHO FlpIn cells assessed as inhibition of receptor-mediated mediated ERK1/2 phosphorylation by Alpha-Screen plate-based assay
Format: cell-based
experimental.context: read-out: IC50
// scale note: pIC50 = -log10(conc_M); give the bare number

Dear colleague, I am looking for the recorded pIC50 of the following compound: `CN1CCN(C2=Nc3cc(Cl)ccc3N(NC(=O)CCCCCCC(=O)NN3c4ccc(Cl)cc4N=C(N4CCN(C)CC4)c4ccccc43)c3ccccc32)CC1` 5.61

For the compound `CN1CCN(C2=Nc3cc(Cl)ccc3N(NC(=O)CCC(=O)OCCOC(=O)CCC(=O)NN3c4ccc(Cl)cc4N=C(N4CCN(C)CC4)c4ccccc43)c3ccccc32)CC1` , what pIC50 is on record? 5.62

Quick check: pIC50 of `CN1CCN(C2=Nc3cc(Cl)ccc3N(NC(=O)CCCCC(=O)NN3c4ccc(Cl)cc4N=C(N4CCN(C)CC4)c4ccccc43)c3ccccc32)CC1` ? 5.68

What value of pIC50 has been reported for the following compound? `CCCCCCCCCC(=O)N1c2ccc(Cl)cc2N=C(N2CCN(C)CC2)c2ccccc21` 6.11

Which pIC50 is reported for this compound? `CN1CCN(C2=Nc3cc(Cl)ccc3N(C(=O)CCCCCCC(=O)N3c4ccc(Cl)cc4N=C(N4CCN(C)CC4)c4ccccc43)c3ccccc32)CC1` 5.57

// lookup pIC50 for `CCCCCCCCCC(=O)NN1c2ccc(Cl)cc2N=C(N2CCN(C)CC2)c2ccccc21` 5.05

Returns the measured pIC50 for the input compound. Input: `O=C(CCCCCCCCCCC(=O)NCCCN1CCN(C2=Nc3cc(Cl)ccc3Nc3ccccc32)CC1)NCCCN1CCN(C2=Nc3cc(Cl)ccc3Nc3ccccc32)CC1` 5.95

I'd like to know its pIC50. The compound in question is `O=C(CCCCCCCCC(=O)NCCCN1CCN(C2=Nc3cc(Cl)ccc3Nc3ccccc32)CC1)NCCCN1CCN(C2=Nc3cc(Cl)ccc3Nc3ccccc32)CC1` 7.36

====

measurement.target: D(2) dopamine receptor (Homo sapiens)
experiment.summary: Inhibition of human dopamine D2L receptor expressed in intact CHO FlpIn cells assessed as inhibition of receptor-mediated mediated ERK1/2 phosphorylation by Alpha-Screen plate-based assay
Format: cell-based
experimental.context: read-out: pIC50 (converted)
measured.metric: IC50

Give the measured IC50 of `CN1CCN(C2=Nc3cc(Cl)ccc3N(C(=O)CCCCCCC(=O)N3c4ccc(Cl)cc4N=C(N4CCN(C)CC4)c4ccccc43)c3ccccc32)CC1` . 1780 nM

Returns the measured IC50 for the input compound. Input: `O=C(CCCCCCCCCCC(=O)NCCCN1CCN(C2=Nc3cc(Cl)ccc3Nc3ccccc32)CC1)NCCCN1CCN(C2=Nc3cc(Cl)ccc3Nc3ccccc32)CC1` 1100 nM

Look at this compound and give its reported IC50. `O=C(CCCCCCCCCCCCCCCCCCC(=O)NCCCN1CCN(C2=Nc3cc(Cl)ccc3Nc3ccccc32)CC1)NCCCN1CCN(C2=Nc3cc(Cl)ccc3Nc3ccccc32)CC1` > 10000 nM

May I ask what IC50 has been recorded for `CN1CCN(C2=Nc3cc(Cl)ccc3N(NC(=O)CCCCC(=O)NN3c4ccc(Cl)cc4N=C(N4CCN(C)CC4)c4ccccc43)c3ccccc32)CC1` ? 2040 nM

====

So I've got a bunch of compounds here, and I need their IC50 values.
measurement.target: D(2) dopamine receptor (Homo sapiens)
experiment.summary: Inhibition of human dopamine D2L receptor expressed in intact CHO FlpIn cells assessed as inhibition of receptor-mediated mediated ERK1/2 phosphorylation by Alpha-Screen plate-based assay
Format: cell-based
experimental.context: read-out: IC50

Request: IC50, test system D(2) dopamine receptor (Homo sapiens), entry `CN1CCN(C2=Nc3cc(Cl)ccc3N(NC(=O)CCCC(=O)N3CCN(C(=O)CCCC(=O)NN4c5ccc(Cl)cc5N=C(N5CCN(C)CC5)c5ccccc54)CC3)c3ccccc32)CC1` 2630 nM

State its IC50 on D(2) dopamine receptor (Homo sapiens): `CN1CCN(C2=Nc3cc(Cl)ccc3N(C(=O)CCCCCCCCC(=O)N3c4ccc(Cl)cc4N=C(N4CCN(C)CC4)c4ccccc43)c3ccccc32)CC1` > 10000 nM

// fetch D(2) dopamine receptor (Homo sapiens) IC50 for `CN1CCN(C2=Nc3cc(Cl)ccc3N(NC(=O)CCCCCCCCCCCCC(=O)NN3c4ccc(Cl)cc4N=C(N4CCN(C)CC4)c4ccccc43)c3ccccc32)CC1` > 10000 nM

Lab note: need IC50 for `O=C(CCCCC(=O)NCCCN1CCN(C2=Nc3cc(Cl)ccc3Nc3ccccc32)CC1)NCCCN1CCN(C2=Nc3cc(Cl)ccc3Nc3ccccc32)CC1` on D(2) dopamine receptor (Homo sapiens), anyone have it? 87 nM

Request - read-out IC50 | tested on D(2) dopamine receptor (Homo sapiens) | compound `O=C(CCCCCCCCCCCCCCCCC(=O)NCCCN1CCN(C2=Nc3cc(Cl)ccc3Nc3ccccc32)CC1)NCCCN1CCN(C2=Nc3cc(Cl)ccc3Nc3ccccc32)CC1` 7800 nM

Provide the documented IC50 with D(2) dopamine receptor (Homo sapiens) as the system for `CN1CCN(C2=Nc3cc(Cl)ccc3N(NC(=O)CCC(=O)N3CCN(C(=O)CCC(=O)NN4c5ccc(Cl)cc5N=C(N5CCN(C)CC5)c5ccccc54)CC3)c3ccccc32)CC1` 1620 nM

====

measurement.target: D(2) dopamine receptor (Homo sapiens, UniProt P14416)
experiment.summary: Inhibition of human dopamine D2L receptor expressed in intact CHO FlpIn cells assessed as inhibition of receptor-mediated mediated ERK1/2 phosphorylation by Alpha-Screen plate-based assay
Format: cell-based
experimental.context: read-out: IC50
I'd appreciate it if you could supply pIC50 values for the items below.
To interpret pIC50, take it as minus log10 of a concentration measured in moles per litre.

Reported pIC50 for `O=C(CCCCCCC(=O)NCCCN1CCN(C2=Nc3cc(Cl)ccc3Nc3ccccc32)CC1)NCCCN1CCN(C2=Nc3cc(Cl)ccc3Nc3ccccc32)CC1` : what is it? 7.64

Recorded pIC50 of `CCCCCCCCCC(=O)NCCCN1CCN(C2=Nc3cc(Cl)ccc3Nc3ccccc32)CC1` , please. 5.84

Request the reported pIC50 associated with `O=C(CCCCCCCCCCCCC(=O)NCCCN1CCN(C2=Nc3cc(Cl)ccc3Nc3ccccc32)CC1)NCCCN1CCN(C2=Nc3cc(Cl)ccc3Nc3ccccc32)CC1` 4.96

====

measurement.target: D(2) dopamine receptor (Homo sapiens, UniProt P14416)
experiment.summary: Inhibition of human dopamine D2L receptor expressed in intact CHO FlpIn cells assessed as inhibition of receptor-mediated mediated ERK1/2 phosphorylation by Alpha-Screen plate-based assay
Format: cell-based
experimental.context: cho
measured.metric: pIC50

Give D(2) dopamine receptor (Homo sapiens, UniProt P14416) pIC50 for `CN1CCN(C2=Nc3cc(Cl)ccc3N(NC(=O)CCCCCCCCC(=O)NN3c4ccc(Cl)cc4N=C(N4CCN(C)CC4)c4ccccc43)c3ccccc32)CC1` < 5

Which measured pIC50 belongs to `CN1CCN(C2=Nc3cc(Cl)ccc3N(NC(=O)CCCCCCCCCCCCCCCCC(=O)NN3c4ccc(Cl)cc4N=C(N4CCN(C)CC4)c4ccccc43)c3ccccc32)CC1` , tested on D(2) dopamine receptor (Homo sapiens, UniProt P14416)? < 5

pIC50 of `CN1CCN(C2=Nc3cc(Cl)ccc3N(C(=O)CCCCCCCCCCCCCCCCCCC(=O)N3c4ccc(Cl)cc4N=C(N4CCN(C)CC4)c4ccccc43)c3ccccc32)CC1` on D(2) dopamine receptor (Homo sapiens, UniProt P14416)? < 5

Give D(2) dopamine receptor (Homo sapiens, UniProt P14416) pIC50 for `CN1CCN(C2=Nc3cc(Cl)ccc3N(C(=O)CCCCCCCCCCCCC(=O)N3c4ccc(Cl)cc4N=C(N4CCN(C)CC4)c4ccccc43)c3ccccc32)CC1` < 5

Request body: readout pIC50, system D(2) dopamine receptor (Homo sapiens, UniProt P14416), query `CN1CCN(C2=Nc3cc(Cl)ccc3N(C(=O)CCCCCCCCC(=O)N3c4ccc(Cl)cc4N=C(N4CCN(C)CC4)c4ccccc43)c3ccccc32)CC1` . Return the value. < 5

GET /values?readout=pIC50&system=D(2) dopamine receptor (Homo sapiens, UniProt P14416)&item= `CN1CCN(C2=Nc3cc(Cl)ccc3N(NC(=O)CCCCCCCCCCCCCCCCCCC(=O)NN3c4ccc(Cl)cc4N=C(N4CCN(C)CC4)c4ccccc43)c3ccccc32)CC1` < 5

Please state recorded pIC50 (tested on D(2) dopamine receptor (Homo sapiens, UniProt P14416)) of `CN1CCN(C2=Nc3cc(Cl)ccc3N(C(=O)CCCCCCCCCCCCCCCCC(=O)N3c4ccc(Cl)cc4N=C(N4CCN(C)CC4)c4ccccc43)c3ccccc32)CC1` < 5

Fill in the recorded pIC50 for this molecule, with D(2) dopamine receptor (Homo sapiens, UniProt P14416) as test system: `CN1CCN(C2=Nc3cc(Cl)ccc3N(C(=O)CCCCCCCCCCC(=O)N3c4ccc(Cl)cc4N=C(N4CCN(C)CC4)c4ccccc43)c3ccccc32)CC1` < 5

What value of pIC50 on D(2) dopamine receptor (Homo sapiens, UniProt P14416) does `CN1CCN(C2=Nc3cc(Cl)ccc3N(NC(=O)CCCCCCCCCCCCC(=O)NN3c4ccc(Cl)cc4N=C(N4CCN(C)CC4)c4ccccc43)c3ccccc32)CC1` have? < 5

Return pIC50 measured with D(2) dopamine receptor (Homo sapiens, UniProt P14416) given this molecule: `CN1CCN(C2=Nc3cc(Cl)ccc3N(NC(=O)CCCCCCCCCCC(=O)NN3c4ccc(Cl)cc4N=C(N4CCN(C)CC4)c4ccccc43)c3ccccc32)CC1` < 5
